The following compounds are listed with their measured viscosity values.
protocol-summary: xn = mol fraction of the nth substance listed
cond: 293.15 K; 100 kPa; Liquid; Cone and plate viscometry; x1 = 0.6
± gives the expanded uncertainty stated by the source.

compound	viscosity
CC(=O)[O-].CCCCCCCCCCCCCC[P+](CCCCCC)(CCCCCC)CCCCCC [trihexyl(tetradecyl)phosphonium acetate] + CCCCCC[n+]1ccn(C)c1.O=S(=O)([N-]S(=O)(=O)C(F)(F)F)C(F)(F)F	746 ± 98 mPa·s
CCCCCCn1cc[n+](C)c1.N#Cc1ccc[n-]1 [1-hexyl-3-methylimidazolium 2-cyanopyrrolide] + CCCCCCCCCCCCCC[P+](CCCCCC)(CCCCCC)CCCCCC.O=S(=O)([N-]S(=O)(=O)C(F)(F)F)C(F)(F)F	423 ± 54 mPa·s
CCCCCCCCCCCCCC[P+](CCCCCC)(CCCCCC)CCCCCC.N#Cc1ccc[n-]1 [trihexyl(tetradecyl)phosphonium 2-cyanopyrrolide] + CCCCCC[n+]1ccn(C)c1.O=S(=O)([N-]S(=O)(=O)C(F)(F)F)C(F)(F)F	445 ± 57 mPa·s

Req: Note viscosity for the compound shown: CCCCCCCC[P+](CC)(CC)CC.O=[N+]([O-])c1cn[n-]c1 [triethyloctylphosphonium 4-nitropyrazolide] + CCCCCCn1cc[n+](C)c1C.O=S(=O)([N-]S(=O)(=O)C(F)(F)F)C(F)(F)F
Resp: 359 ± 45 mPa·s

----------
protocol-summary: xn = mol fraction of the nth substance listed
cond: 303.15 K; 100 kPa; Liquid; Cone and plate viscometry; x1 = 0.5
± gives the expanded uncertainty stated by the source.
assay-readout: viscosity
Give me the value, and tack the unit on after it.

molecule	viscosity
CCCCCCC[P+](CC)(CC)CC.O=[N+]([O-])c1cn[n-]c1 [triethylheptylphosphonium 4-nitropyrazolide] + CC[P+](CC)(CC)COCCOC.O=S(=O)([N-]S(=O)(=O)C(F)(F)F)C(F)(F)F	59 ± 7 mPa·s

Req: Note viscosity for the molecule shown: CCCCCCn1cc[n+](C)c1.O=[N+]([O-])c1cn[n-]c1 [1-hexyl-3-methylimidazolium 4-nitropyrazolide] + CCCCCCCCCCCCCC[P+](CCCCCC)(CCCCCC)CCCCCC.O=S(=O)([N-]S(=O)(=O)C(F)(F)F)C(F)(F)F
Resp: 259 ± 32 mPa·s

Req: Note viscosity for the molecule shown: CCCCCCCCCCCCCC[P+](CCCCCC)(CCCCCC)CCCCCC.N#Cc1ccc[n-]1 [trihexyl(tetradecyl)phosphonium 2-cyanopyrrolide] + CCCCCCn1cc[n+](C)c1C.O=S(=O)([N-]S(=O)(=O)C(F)(F)F)C(F)(F)F
Resp: 257 ± 32 mPa·s

Req: Note viscosity for the molecule shown: CCCCCCCC[P+](CC)(CC)CC.O=[N+]([O-])c1cn[n-]c1 [triethyloctylphosphonium 4-nitropyrazolide] + CCCCCCn1cc[n+](C)c1C.O=S(=O)([N-]S(=O)(=O)C(F)(F)F)C(F)(F)F
Resp: 177 ± 22 mPa·s

Req: Note viscosity for the molecule shown: CCCCCCn1cc[n+](C)c1C.O=[N+]([O-])c1cn[n-]c1 [1-hexyl-2,3-dimethylimidazolium 4-nitropyrazolide] + CCCCCCCCCCCCCC[P+](CCCCCC)(CCCCCC)CCCCCC.O=S(=O)([N-]S(=O)(=O)C(F)(F)F)C(F)(F)F
Resp: 324 ± 41 mPa·s

----------
The following molecules are listed with their measured viscosity values.
protocol-summary: xn = mol fraction of the nth substance listed
cond: 323.15 K; 100 kPa; Liquid; Cone and plate viscometry; x1 = 0.5
Note: unit mPa·s is implicit; provide only the numeric part.

Examples with their reported viscosity follow.
molecule	unit-of-measurement	viscosity
CCCCCCn1cc[n+](C)c1.O=[N+]([O-])c1cn[n-]c1 [1-hexyl-3-methylimidazolium 4-nitropyrazolide] + CCCCCCCCCCCCCC[P+](CCCCCC)(CCCCCC)CCCCCC.O=S(=O)([N-]S(=O)(=O)C(F)(F)F)C(F)(F)F	mPa·s	94
CCCCCCCC[P+](CC)(CC)CC.O=[N+]([O-])c1cn[n-]c1 [triethyloctylphosphonium 4-nitropyrazolide] + CCCCCCn1cc[n+](C)c1C.O=S(=O)([N-]S(=O)(=O)C(F)(F)F)C(F)(F)F	mPa·s	66
CCCCCCCCCCCCCC[P+](CCCCCC)(CCCCCC)CCCCCC.N#Cc1ccc[n-]1 [trihexyl(tetradecyl)phosphonium 2-cyanopyrrolide] + CCCCCCn1cc[n+](C)c1C.O=S(=O)([N-]S(=O)(=O)C(F)(F)F)C(F)(F)F	mPa·s	93

Proceeding to the next molecule to report its viscosity.
Req: Note viscosity for the molecule shown: CCCCCCn1cc[n+](C)c1C.O=[N+]([O-])c1cn[n-]c1 [1-hexyl-2,3-dimethylimidazolium 4-nitropyrazolide] + CCCCCCCCCCCCCC[P+](CCCCCC)(CCCCCC)CCCCCC.O=S(=O)([N-]S(=O)(=O)C(F)(F)F)C(F)(F)F
Resp: 112

----------
The following compounds are listed with their measured viscosity values.
protocol-summary: xn = mol fraction of the nth substance listed
cond: 293.15 K; 100 kPa; Liquid; Cone and plate viscometry; x1 = 0.1
± gives the expanded uncertainty stated by the source.
Give me the value, and tack the unit on after it.

compound	viscosity
CCCCCCCCCCCCCC[P+](CCCCCC)(CCCCCC)CCCCCC.N#Cc1ccc[n-]1 [trihexyl(tetradecyl)phosphonium 2-cyanopyrrolide] + CCCCCC[n+]1ccn(C)c1.O=S(=O)([N-]S(=O)(=O)C(F)(F)F)C(F)(F)F	132 ± 16 mPa·s

Req: Note viscosity for the compound shown: CCCCCCn1cc[n+](C)c1.N#Cc1ccc[n-]1 [1-hexyl-3-methylimidazolium 2-cyanopyrrolide] + CCCCCCCCCCCCCC[P+](CCCCCC)(CCCCCC)CCCCCC.O=S(=O)([N-]S(=O)(=O)C(F)(F)F)C(F)(F)F
Resp: 410 ± 52 mPa·s

Req: Note viscosity for the compound shown: CCCCCCCCCCCCCC[P+](CCCCCC)(CCCCCC)CCCCCC.N#Cc1ccc[n-]1 [trihexyl(tetradecyl)phosphonium 2-cyanopyrrolide] + CCCCCCn1cc[n+](C)c1C.O=S(=O)([N-]S(=O)(=O)C(F)(F)F)C(F)(F)F
Resp: 234 ± 29 mPa·s

Req: Note viscosity for the compound shown: CCCCCCn1cc[n+](C)c1.O=[N+]([O-])c1cn[n-]c1 [1-hexyl-3-methylimidazolium 4-nitropyrazolide] + CCCCCCCC[P+](CC)(CC)CC.O=S(=O)([N-]S(=O)(=O)C(F)(F)F)C(F)(F)F
Resp: 152 ± 19 mPa·s

Req: Note viscosity for the compound shown: CCCCCCCCCC[P+](CC)(CC)CC.O=[N+]([O-])c1cn[n-]c1 [decyltriethylphosphonium 4-nitropyrazolide] + CC[P+](CC)(CC)COCCOC.O=S(=O)([N-]S(=O)(=O)C(F)(F)F)C(F)(F)F
Resp: 49 ± 6 mPa·s

----------
protocol-summary: xn = mol fraction of the nth substance listed
cond: 308.15 K; 100 kPa; Liquid; Cone and plate viscometry; x1 = 0.499
The following compounds are listed with their measured viscosity values.
Note: unit mPa·s is implicit; provide only the numeric part.

Req: Note viscosity for the compound shown: CCCCCCn1cc[n+](C)c1C.O=[N+]([O-])c1cn[n-]c1 [1-hexyl-2,3-dimethylimidazolium 4-nitropyrazolide] + CCCCCCCC[P+](CC)(CC)CC.O=S(=O)([N-]S(=O)(=O)C(F)(F)F)C(F)(F)F
Resp: 118

Req: Note viscosity for the compound shown: CCCCCCCCCC[P+](CC)(CC)CC.O=[N+]([O-])c1cn[n-]c1 [decyltriethylphosphonium 4-nitropyrazolide] + CC[P+](CC)(CC)COCCOC.O=S(=O)([N-]S(=O)(=O)C(F)(F)F)C(F)(F)F
Resp: 64

----------
The following molecules are listed with their measured viscosity values.
protocol-summary: xn = mol fraction of the nth substance listed
cond: 303.15 K; 100 kPa; Liquid; Cone and plate viscometry; x1 = 0.2
Note: unit mPa·s is implicit; provide only the numeric part.

Examples with their reported viscosity follow.
molecule	assay-readout	unit-of-measurement	numeric-value
CCCCCCCCCCCCCC[P+](CCCCCC)(CCCCCC)CCCCCC.N#Cc1ccc[n-]1 [trihexyl(tetradecyl)phosphonium 2-cyanopyrrolide] + CCCCCC[n+]1ccn(C)c1.O=S(=O)([N-]S(=O)(=O)C(F)(F)F)C(F)(F)F	viscosity	mPa·s	111
CCCCCCCCCCCCCC[P+](CCCCCC)(CCCCCC)CCCCCC.O=S(=O)([N-]S(=O)(=O)C(F)(F)F)C(F)(F)F + CCCCCC[n+]1ccn(C)c1.O=S(=O)([N-]S(=O)(=O)C(F)(F)F)C(F)(F)F	viscosity	mPa·s	92
CCCCCCn1cc[n+](C)c1.N#Cc1ccc[n-]1 [1-hexyl-3-methylimidazolium 2-cyanopyrrolide] + CCCCCCCCCCCCCC[P+](CCCCCC)(CCCCCC)CCCCCC.O=S(=O)([N-]S(=O)(=O)C(F)(F)F)C(F)(F)F	viscosity	mPa·s	241

Proceeding to the next molecule to report its viscosity.
Req: Note viscosity for the molecule shown: CCCCCCCCCCCCCC[P+](CCCCCC)(CCCCCC)CCCCCC.O=[N+]([O-])c1cn[n-]c1 [trihexyl(tetradecyl)phosphonium 4-nitropyrazolide] + CCCCCC[n+]1ccn(C)c1.O=S(=O)([N-]S(=O)(=O)C(F)(F)F)C(F)(F)F
Resp: 111
